TARGET_UNDER_TEST: His-tagged pro-domain of MMP-7 (His-PD) (human, UniProt P09237 18-267, Limits are the UniProt activation peptide. Paper's NMR numbering + 24 = precursor numbering (Gln7=Q31, Glu32=E56, Gly48=G72, Ser52=S76). Deletion-construct numbering implies a PD of about 79 residues,)
Sequence (P09237 18-267): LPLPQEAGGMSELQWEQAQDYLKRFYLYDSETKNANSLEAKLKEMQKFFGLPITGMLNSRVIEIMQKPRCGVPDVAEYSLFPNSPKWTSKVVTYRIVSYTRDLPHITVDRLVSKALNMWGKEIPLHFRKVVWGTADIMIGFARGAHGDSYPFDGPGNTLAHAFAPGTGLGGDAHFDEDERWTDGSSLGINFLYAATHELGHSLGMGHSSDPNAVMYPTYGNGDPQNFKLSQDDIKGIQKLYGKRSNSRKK
PROTOCOL_DETAILS: other fluorescence titration; tryptophan quenching; 15 uM His-PD, S2-P titrated up to 1:200 molar ratio; PBS pH 7.4, 298 K; excitation 280 nm, intensity at 347 nm
RUN_CONDITIONS: both partners purified
QUANTITY_NAME: pKd
Scale for pKd: -log10 of concentration given in mol/L; no unit attached.

input: Could you share which pKd value was measured for SGVYPIDDDDYASASGSGAD (human syndecan-2 extracellular domain residues 41-60; also called S2-P peptide; source: synthetic peptide (Fmoc solid-phase, Anygen Inc.)) [synthetic human syndecan-2 peptide (S2-P), extracellular domain residues 41-60] ?
output: 2.80
